tested on: calf thymus DNA (ctDNA); assay: Terbium (Tb3+) luminescent biosensor detection of induced DNA damage; type: biochemical; settings: ctDNA incubated with compound 24 h; emission 545 nm, excitation 270 nm; compared with ctDNA-Tb mixture
TEST_READOUT: Tb luminescence enhancement (induced DNA damage)

INSERT INTO results (compound, target_entity, observed_value) VALUES
  ('C=CCn1c(-c2ccccc2)cn(N=C2C(=O)c3cccc4cccc2c34)c1=S', 'calf thymus DNA (ctDNA)', 'minimum enhancement'),
  ('O=C1C(=Nn2cc(-c3ccc(Cl)cc3)n(-c3ccccc3)c2=S)c2cccc3cccc1c23', 'calf thymus DNA (ctDNA)', 'significant enhancement'),
  ('COc1cccc(-n2c(-c3ccc(Cl)cc3)cn(N=C3C(=O)c4cccc5cccc3c45)c2=S)c1', 'calf thymus DNA (ctDNA)', 'significant enhancement'),
  ('O=C1C(=Nn2cc(-c3ccccc3)n(-c3ccccc3)c2=S)c2cccc3cccc1c23', 'calf thymus DNA (ctDNA)', 'significant enhancement'),
  ('C=CCn1c(-c2ccc3ccccc3c2)cn(N=C2C(=O)c3cccc4cccc2c34)c1=S', 'calf thymus DNA (ctDNA)', 'minimum enhancement'),
  ('C=CCn1c(-c2ccc(Cl)cc2)cn(N=C2C(=O)c3cccc4cccc2c34)c1=S', 'calf thymus DNA (ctDNA)', 'minimum enhancement'),
  ('COc1cccc(-n2c(-c3ccccc3)cn(N=C3C(=O)c4cccc5cccc3c45)c2=S)c1', 'calf thymus DNA (ctDNA)', 'significant enhancement');

Now take the following compound into account.
Answer with the recorded Tb luminescence enhancement (induced DNA damage) of COc1cccc2c1C(=O)c1c(O)c3c(c(O)c1C2=O)C[C@@](O)(C(=O)CO)C[C@@H]3O[C@H]1C[C@H](N)[C@H](O)[C@H](C)O1 [doxorubicin, reference compound] only.
significant enhancement
